- subject.of.test: Runt-related transcription factor 1 (Homo sapiens) + Core-binding factor subunit beta (Homo sapiens) (UniProt Q01196+Q13951)
- Sequence (Q01196 whole entry, looked up): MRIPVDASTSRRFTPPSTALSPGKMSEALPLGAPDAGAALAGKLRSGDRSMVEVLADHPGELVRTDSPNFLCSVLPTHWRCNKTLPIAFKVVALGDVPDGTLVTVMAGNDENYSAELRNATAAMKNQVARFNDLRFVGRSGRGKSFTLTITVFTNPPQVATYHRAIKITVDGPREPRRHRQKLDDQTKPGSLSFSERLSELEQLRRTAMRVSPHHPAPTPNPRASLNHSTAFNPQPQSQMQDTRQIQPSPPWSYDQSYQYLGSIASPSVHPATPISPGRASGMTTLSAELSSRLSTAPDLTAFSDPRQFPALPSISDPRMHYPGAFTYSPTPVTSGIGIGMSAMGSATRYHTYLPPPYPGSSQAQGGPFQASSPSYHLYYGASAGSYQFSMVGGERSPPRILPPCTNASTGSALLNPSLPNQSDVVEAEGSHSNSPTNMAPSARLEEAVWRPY
- Sequence (Q13951 whole entry, looked up): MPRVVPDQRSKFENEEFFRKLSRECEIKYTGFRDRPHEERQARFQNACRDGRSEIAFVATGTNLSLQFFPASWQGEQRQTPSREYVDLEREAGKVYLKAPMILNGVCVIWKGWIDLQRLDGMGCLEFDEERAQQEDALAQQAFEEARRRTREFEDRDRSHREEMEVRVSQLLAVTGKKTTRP
- assay.overview: qHTS Assay for Compounds Blocking the Interaction Between CBF-beta and RUNX1 for the Treatment of Acute Myeloid Leukemia: Hit Validation with Orthogonal Assay
- experimental.setup: CBFbeta-RUNX1 binding orthogonal assay, biochemical; series mostly up to 41 µM
Hit rate of the full screen: of about 1,600 compounds, about 25 (2%) were called active. About 7% were inconclusive and are not listed. The call rests on the fitted dose curve; in most records, active means well fitted inhibition curve with a large enough effect; inconclusive means small, poorly fitted or top-dose-only effect, or effect the other way; inactive means no such curve, though single readings can be large or run the other way. The sample holds actives, similar compounds and a random draw of the others, so the mix is not that of the screen.
Classes used: active, inactive

compound	label.class
O=C(CSc1nc2ccccc2n1Cc1ccccc1Cl)N/N=C/c1ccccc1C(=O)O	inactive
CN1CCN(C(=O)C23CC4CC(C)(CC(C)(C4)C2)C3)CC1	inactive
O=C1NCCc2c1[nH]c1ccccc21	inactive
Cc1ccc(Cl)cc1NC(=S)N(CCN(C)C)C(C)c1ccccn1 (centres undefined)	active
